test: Solubility of SG-PTX in various formulations (surfactant solutions); type: physicochemical; details: 25 °C, aqueous with cosolvent or surfactant or cyclodextrin, thermodynamic from solid; 15% (v/v) Tween-80 in water, no ethanol; read-out: solubility in formulation
READOUT: solubility at 72 h (µg/mL)
# value in µg/mL; strip the unit string

Inquiry: In one line, give reported solubility at 72 h of the entry CC(=O)O[C@H]1C(=O)[C@@]2(C)[C@H]([C@H](OC(=O)c3ccccc3)[C@]3(O)C[C@H](OC(=O)[C@H](OC(=O)CCC(=O)OC4O[C@H](CO)[C@@H](O)[C@H](O)[C@H]4O)[C@@H](NC(=O)c4ccccc4)c4ccccc4)C(C)=C1C3(C)C)[C@]1(OC(C)=O)CO[C@@H]1C[C@@H]2O (stereo partly shown) .
Reply text: 961

----------
assay: Solubility measurements in injection media (excess powder, HPLC); format: physicochemical; conditions: 25 °C, saline or isotonic, thermodynamic from solid, 5% glucose solution, 25 °C, shaken 72 h, mean ± SD, n = 4; read-out: Solubility, 5% Glucose
READOUT: solubility at 72 h (µg/mL)
# value in µg/mL; strip the unit string

>  <COMPOUND>
CC(=O)O[C@H]1C(=O)[C@]2(C)[C@@H](OC(=O)CCC(=O)OC3O[C@H](CO)[C@@H](O)[C@H](O)[C@H]3O)C[C@H]3OC[C@@]3(OC(C)=O)[C@H]2[C@H](OC(=O)c2ccccc2)[C@]2(O)C[C@H](OC(=O)[C@H](OC(=O)CCC(=O)OC3O[C@H](CO)[C@@H](O)[C@H](O)[C@H]3O)[C@@H](NC(=O)c3ccccc3)c3ccccc3)C(C)=C1C2(C)C (some centres unmarked) [DG-PTX]

>  <solubility at 72 h / µg/mL>
34.8

$$$$

Next, consider the following compound.
Inquiry: In one line, give reported solubility at 72 h of the entry CC(=O)O[C@H]1C(=O)[C@@]2(C)[C@H]([C@H](OC(=O)c3ccccc3)[C@]3(O)C[C@H](OC(=O)[C@H](OC(=O)CCC(=O)OC4O[C@H](CO)[C@@H](O)[C@H](O)[C@H]4O)[C@@H](NC(=O)c4ccccc4)c4ccccc4)C(C)=C1C3(C)C)[C@]1(OC(C)=O)CO[C@@H]1C[C@@H]2O (some centres unmarked) [SG-PTX, C2′-single glycosylated paclitaxel] .
Reply text: 17.9

----------
test: Solubility of SG-PTX in various formulations (surfactant solutions); assay type: physicochemical; settings: 25 °C, aqueous with cosolvent or surfactant or cyclodextrin, thermodynamic from solid; 15% (v/v) Cremophor EL in water, no ethanol; read-out: solubility in formulation
READOUT: solubility at 72 h (mg/mL)
# value in mg/mL; strip the unit string

Inquiry: In one line, give reported solubility at 72 h of the entry CC(=O)O[C@H]1C(=O)[C@@]2(C)[C@H]([C@H](OC(=O)c3ccccc3)[C@]3(O)C[C@H](OC(=O)[C@H](OC(=O)CCC(=O)OC4O[C@H](CO)[C@@H](O)[C@H](O)[C@H]4O)[C@@H](NC(=O)c4ccccc4)c4ccccc4)C(C)=C1C3(C)C)[C@]1(OC(C)=O)CO[C@@H]1C[C@@H]2O (stereo partly shown) [SG-PTX, C2′-single glycosylated paclitaxel] .
Reply text: 1.32

----------
test: Solubility measurements in injection media (excess powder, HPLC); type: physicochemical; conditions: pure water, 25 °C, water, thermodynamic from solid, pure water, 25 °C, shaken 72 h, mean ± SD, n = 4; read-out: Solubility, Pure Water
READOUT: solubility at 72 h

Inquiry: In one line, give reported solubility at 72 h of the entry CC(=O)O[C@H]1C(=O)[C@@]2(C)[C@H]([C@H](OC(=O)c3ccccc3)[C@]3(O)C[C@H](OC(=O)[C@H](O)[C@@H](NC(=O)c4ccccc4)c4ccccc4)C(C)=C1C3(C)C)[C@]1(OC(C)=O)CO[C@@H]1C[C@@H]2O [PTX, Paclitaxel, reference compound] .
Reply text: < 1 µg/mL
